Catalogue of pIC50 values
biological target: Acetylcholinesterase (Homo sapiens, UniProt P22303); test: Inhibition of AChE assessed as hydrolysis of acetylcholine preincubated for 15 mins measured after 15 mins by colorimetric Ellman assay
Sequence (P22303 whole entry): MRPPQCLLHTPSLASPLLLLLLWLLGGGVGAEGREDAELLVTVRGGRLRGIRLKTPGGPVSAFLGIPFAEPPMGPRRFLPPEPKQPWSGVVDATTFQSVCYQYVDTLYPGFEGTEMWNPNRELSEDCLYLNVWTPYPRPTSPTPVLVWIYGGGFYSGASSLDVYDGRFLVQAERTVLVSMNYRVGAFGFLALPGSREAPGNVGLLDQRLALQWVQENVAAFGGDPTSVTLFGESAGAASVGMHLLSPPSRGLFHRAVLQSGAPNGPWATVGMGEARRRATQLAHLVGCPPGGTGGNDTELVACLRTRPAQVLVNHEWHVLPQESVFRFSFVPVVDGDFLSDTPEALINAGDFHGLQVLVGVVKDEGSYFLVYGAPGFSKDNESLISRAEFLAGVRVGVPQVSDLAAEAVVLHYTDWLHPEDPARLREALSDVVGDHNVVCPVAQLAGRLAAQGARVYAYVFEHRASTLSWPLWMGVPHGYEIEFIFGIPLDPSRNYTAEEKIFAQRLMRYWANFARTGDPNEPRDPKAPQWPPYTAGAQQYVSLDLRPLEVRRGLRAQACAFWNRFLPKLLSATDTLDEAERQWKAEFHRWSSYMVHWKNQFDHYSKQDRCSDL
The scale used: pIC50 is minus the common logarithm of the concentration in molar units.

• C[C@H](CC(=O)C[C@@H](C)[C@H]1CC(=O)[C@@]2(C)C3=C(C(=O)C[C@]12C)[C@@]1(C)CCC(=O)C(C)(C)[C@@H]1CC3=O)C(=O)O = 4.74
• COC(=O)[C@H](C)CC(=O)C[C@@H](C)[C@H]1C[C@@H]2OC(C)(C)O[C@H]3C[C@H]4C(C)(C)C(=O)CC[C@]4(C)C4=C3[C@@]2(C)[C@]1(C)CC4=O [METHYL GANODERATE A ACETONIDE] = 4.74
• COC(=O)C(C)CC(=O)C[C@@H](C)[C@H]1C[C@H](O)[C@@]2(C)C3=C(C(=O)C[C@]12C)[C@@]1(C)CCC(=O)C(C)(C)[C@@H]1C[C@@H]3O (stereo not given in full) [METHYL GANODERATE A] = 4.52

Data request: Query (compound): CC(CC(=O)C[C@@H](C)[C@H]1CC(=O)[C@@]2(C)C3=C(C(=O)C[C@]12C)[C@@]1(C)CC[C@H](O)C(C)(C)[C@@H]1C[C@@H]3O)C(=O)O (stereo not given in full) ; field requested: pIC50
Data returned: 4.65

Data request: Query (compound): "C/C(=C\CC[C@@H](C)[C@H]1CC[C@@]2(C)C3=C(CC[C@]12C)[C@@]1(C)CC[C@H](O)C(C)(C)[C@@H]1CC3=O)CO" ; field requested: pIC50
Data returned: 4.51
